molecular target: Metabotropic glutamate receptor 8 (Rattus norvegicus) (UniProt P70579); assay: mGluR8 Gi/Go-coupled signaling modulation – cell-based, rat, thallium flux, HTS, primary screen (AID 488969); settings: HEK293 rat mGluR8, GIRK thallium flux, FluoZin2; at 10 µM; stronger effect = higher value; submaximal glutamate (EC20) added with thallium
Sequence (P70579 whole entry, looked up): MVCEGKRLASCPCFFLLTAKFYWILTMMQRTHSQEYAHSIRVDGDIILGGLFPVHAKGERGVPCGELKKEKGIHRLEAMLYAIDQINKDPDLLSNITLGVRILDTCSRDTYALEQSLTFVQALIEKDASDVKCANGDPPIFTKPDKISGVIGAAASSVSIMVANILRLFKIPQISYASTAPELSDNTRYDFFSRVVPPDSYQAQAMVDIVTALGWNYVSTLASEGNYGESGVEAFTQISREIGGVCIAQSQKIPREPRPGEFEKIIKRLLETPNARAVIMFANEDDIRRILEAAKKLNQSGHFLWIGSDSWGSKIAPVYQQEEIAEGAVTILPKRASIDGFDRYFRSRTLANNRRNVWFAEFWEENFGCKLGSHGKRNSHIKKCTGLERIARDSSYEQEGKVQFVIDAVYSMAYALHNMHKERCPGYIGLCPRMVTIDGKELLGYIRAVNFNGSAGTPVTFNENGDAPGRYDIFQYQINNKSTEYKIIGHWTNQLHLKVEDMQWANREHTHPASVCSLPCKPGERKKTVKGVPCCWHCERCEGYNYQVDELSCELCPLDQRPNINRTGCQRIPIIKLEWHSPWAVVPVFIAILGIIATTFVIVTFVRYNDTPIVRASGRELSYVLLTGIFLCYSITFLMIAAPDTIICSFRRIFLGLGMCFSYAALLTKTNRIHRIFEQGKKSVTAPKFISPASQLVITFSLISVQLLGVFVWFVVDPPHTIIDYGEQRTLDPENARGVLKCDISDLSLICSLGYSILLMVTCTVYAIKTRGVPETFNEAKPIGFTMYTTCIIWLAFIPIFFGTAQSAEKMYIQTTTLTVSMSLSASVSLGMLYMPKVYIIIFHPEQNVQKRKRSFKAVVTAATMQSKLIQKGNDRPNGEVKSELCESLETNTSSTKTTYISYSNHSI
In all, about 110,000 compounds were measured (“z-score”: median about -0.1, highest 2% from about 2 on). This is one part of a sample in which the highest values are shown more often than they occur.
Please assign a class to every record based on measured z-score, with ranges lower: < 0.01; middle: ≥ 0.01 and < 0.6; upper: ≥ 0.6

Category of Cc1ccccc1C(=O)NNC(=S)NC(=O)COc1ccccc1 :
upper

Any idea which band O=C(/C=C/c1c(Cl)cccc1Cl)N1CCN(c2ncccn2)CC1 is in?
lower

Place this molecule in its band: CCCn1c(=N)n(CC(=O)OCC)c2ccccc21
lower

Into which category would you place Cn1nnc2cc(NC(=O)N3CCN(c4ccccn4)CC3)ccc21 ?
middle

Note: place this molecule into its band. Item: CCCn1c(=N)n(CCOCCOCCn2c(=N)n(CCC)c3ccccc32)c2ccccc21
middle

Class for COc1cc(CNC2CCCC2)cc(Cl)c1OCc1ccccc1F ?
upper

Tag the class for CCOC(=O)Cn1c(=N)n(CCOc2ccc(OC)cc2)c2ccccc21
upper

# classify by z-score band: Cc1ccc(N(CC(=O)Nc2ccccc2C(=O)N2CCOCC2)S(C)(=O)=O)cc1
lower

# classify by z-score band: Clc1ccc(Cn2ncc3c(N4CCCCC4)ncnc32)cc1
lower

Quick check: band for CC(C)(C)c1n[nH]c(=S)n(/N=C/c2cccs2)c1=O
middle

Band assignment needed for O=C(CN1C(=O)c2cccc3cccc1c23)NCc1ccc2c(c1)OCO2 please.
lower

For this molecule, which bin applies? Cc1cccc(OCCn2c(S(=O)(=O)O)nc3ccccc32)c1
middle

Which band does COc1ccc(NC(=O)C(Sc2ccccc2)c2ccccc2)c(OC)c1 (stereo unspecified) fall in?
upper

Bin? CCOC(=O)c1ccc(N/C=C2/CCCC(C)C2=O)cc1 (stereo unspecified)
middle

Record CCCN1C2=C(C(=O)CCC2)C(c2ccc(F)cc2)C2=C1c1ccccc1C2=O (stereo unspecified) — which class?
lower

Input COc1cc(CNC2CCCC2)cc(Cl)c1OCc1ccccc1Cl ; output its category
middle

Which bin, given its z-score, does CSc1ccccc1NC(=O)CN(c1ccccc1Br)S(C)(=O)=O occupy?
upper

Exercise: read the entry O=C(NN1C(=O)C2C3C=CC(C4CC34)C2C1=O)c1ccc(Cl)cc1Cl (stereo unspecified) and state which class it falls under.
lower

Any idea which band COc1ccc(Cl)cc1N(CC(=O)Nc1ccccc1SC)S(C)(=O)=O is in?
middle

Class label required: COc1ccc(-c2nc(N)nc(C)c2Oc2ccccc2Br)c(O)c1
lower

Which band does Cc1ccc(-c2n[nH]c(=S)n2/N=C/c2ccc(C)s2)cc1 fall in?
upper

Sort Cc1ccc(C(=O)NNC(=S)NC(=O)COc2ccccc2)cc1 into one of the categories.
upper

State the band of COc1cc(CNC2CCCC2)cc(Cl)c1OCc1ccc(F)cc1
lower

Pick a category. Item: CC1(C)N=C(N)N=C(N)N1c1ccc(F)cc1F
lower

Lab note: sort Cc1cccc(OCCn2c(=S)[nH]c3ccccc32)c1 into the matching z-score band.
upper

Class label required: N=c1n(CCO)c2ccccc2n1CCOc1ccccc1
lower

Consider Cc1ccc(-c2n[nH]c(=S)n2/N=C/c2cccs2)cc1 . To which z-score class does it belong?
upper

State the class of the molecule shown: Cn1nnnc1SCc1nnc(-c2ccc(Cl)cc2)o1
upper

Given O=c1ccn(-c2cccc(C(F)(F)F)c2)nc1-c1ccn(-c2ccccc2)n1 , name the class its z-score places it in.
lower

For the record S=c1[nH]nc(C2CCCCC2)n1/N=C/c1cccs1 , report the class its z-score corresponds to.
upper

# bin label for Cn1nnnc1SCc1nnc(-c2ccccc2Br)o1
middle

Lab note: which band did O=S1(=O)C[C@@H](O)[C@@H](Nc2ccc(Cl)cc2)C1 land in?
lower

Bin this entry: Cn1c(SCC(=O)NNC(=O)Cc2ccccc2)nnc1-c1ccc(Cl)cc1
lower

Which of the defined bands does the recorded z-score of COc1cccc(-n2c(SCC(=O)NCCC3=CCCCC3)nc3n[nH]c(C)c3c2=N)c1 sit within?
upper

Classify this molecule: CCc1ccc(NC(=O)CSc2nc3n[nH]c(C)c3c(=N)n2-c2cccc(OC)c2)cc1
middle

Class label required: S=c1[nH]nc(COc2ccccc2)n1/N=C/c1cccs1
upper

Could you place COc1cccc(OCC(=O)NNC(=O)c2ccc(-c3ccccc3)cc2)c1 in its proper category? Many thanks.
upper

Looking at Cc1ccsc1/C=N/n1c(C2CCCCC2)n[nH]c1=S , which class would you pick?
middle

Which category does the recorded z-score put CN1CCN(c2ccccc2NC(=O)COc2ccccc2)CC1 in?
lower

Classify this molecule: CCOC(=O)/C=c1\s/c(=C\c2ccc(C)cc2)c(=O)n1CC(=O)NCc1ccco1
middle

Textbook exercise: identify the category of the molecule given here, CCOC(=O)Cn1c(=N)n(CCOc2cccc(C)c2)c2ccccc21 , according to its measured value.
upper

# bin label for CCn1c(=S)[nH]c2ccccc21
upper

Tag the class for Cc1ccc(OCC(=O)NNC(=O)c2cccnc2)cc1
middle

Given COc1ccccc1NC(=O)C(Sc1ccccc1)c1ccccc1 (stereo unspecified) , name the class its z-score places it in.
upper

====

biological target: Metabotropic glutamate receptor 8 (Rattus norvegicus) (UniProt P70579); assay: mGluR8 Gi/Go-coupled signaling modulation – cell-based, rat, thallium flux, HTS, primary screen (AID 488969); conditions: HEK293 rat mGluR8, GIRK thallium flux, FluoZin2; at 10 µM; stronger effect = higher value; submaximal glutamate (EC20) added with thallium
Over roughly 110,000 compounds, “z-score” has its median near -0.1; the highest 2% begin near 2. Only a selection was taken, and the highest values are over-represented in it overall.
Would you mind labelling by z-score? At or over 1 is Condition met, under is Condition not met.

Textbook exercise: given the entry N=c1c(C(=O)NCc2ccco2)cc2c(=O)n3ccccc3nc2n1Cc1ccccc1 , state whether its z-score is greater than or equal to 1.
Condition met

Exam item: decide whether the reported z-score for N=c1c(C(=O)NCc2ccco2)cc2c(=O)n3ccccc3nc2n1CCc1ccccc1 is at least 1.
Condition met

Determine whether measured z-score meets or exceeds 1 for Cc1cc2c(C)nc3ccccc3c2o1
Condition not met

Dear colleague, could you confirm whether CC(C)(C)n1nc2c(c1NC(=O)c1ccccc1F)CS(=O)C2 (stereo not given) has z-score at or above 1?
Condition not met

Quick check, z-score >= 1? COc1ccc(CCn2c(=N)c(C(=O)NCc3ccco3)cc3c(=O)n4ccccc4nc32)cc1
Condition not met

====

Kindly supply the reported z-score values for the records listed here.
molecular target: Metabotropic glutamate receptor 8 (Rattus norvegicus); assay: mGluR8 Gi/Go-coupled signaling modulation – cell-based, rat, thallium flux, HTS, primary screen (AID 488969); settings: HEK293 rat mGluR8, GIRK thallium flux, FluoZin2; at 10 µM; stronger effect = higher value; submaximal glutamate (EC20) added with thallium
The full ranking holds about 110,000 compounds; the median of “z-score” is about -0.1, and the highest 2% start at about 2. For the sample, the highest values were picked, then their nearest neighbours and some compounds at random.
Keep it simple and answer with nothing but the number.

Give reported z-score value for CC1CCN(c2cc(N3CCOCC3)c(F)cc2[N+](=O)[O-])CC1
-0.674

Consider the compound Cc1ccc2c(c1)C1CCCC3C1N2CC(=O)N3Cc1ccccc1 (stereo unspecified) and give its recorded z-score.
-0.338

Please list z-score recorded for the compound Cc1ccc(-n2c(C)nnc2SCC(=O)N2CCc3ccccc3C2)cc1
-0.994

Find the measured z-score of CC1CCN(c2cc(N3CCOCC3)c([N+](=O)[O-])cc2F)CC1 and report it.
2.53

Query z-score for NC(=O)CSc1ncc(-c2ccccc2)[nH]1
0.142

Tell me its z-score given O=[N+]([O-])c1cccnc1N1CCC(c2cc(-c3cccc(C(F)(F)F)c3)n[nH]2)CC1 as the entry.
-0.378

====

target: Metabotropic glutamate receptor 8 (Rattus norvegicus) (UniProt P70579); test: mGluR8 Gi/Go-coupled signaling modulation – cell-based, rat, thallium flux, HTS, primary screen (AID 488969); details: HEK293 rat mGluR8, GIRK (G protein-gated inwardly rectifying potassium channel) thallium flux, FluoZin2; at 10 µM; stronger effect = higher value; submaximal glutamate (EC20) added with thallium
The full ranking holds about 110,000 compounds; the median of “z-score” is about -0.1, and the highest 2% start at about 2. Many of the other results were omitted from the sample, so the highest values are more common in it than they were.
What z-score was measured for each of the following?
Form: value (number only, do not type unit).

Tell me its z-score given S=C(Nc1ccc(Cl)cc1)N1CCCCC1 as the entry.
-0.262

State its z-score for this molecule: COC(=O)C(CC(C)C)NC(=O)c1ccc([N+](=O)[O-])cc1 (centres undefined)
2.03

For COc1ccc(NC(=S)N/N=C2/CCCc3c(C)cc(C)cc32)cc1 , write its z-score.
0.0188

For O=C(NCCCn1ccnc1)Nc1ccc(Cl)c(Cl)c1 , write its z-score.
3.92

Look up z-score of CC(Cc1ccccc1)NC(=O)c1ccc([N+](=O)[O-])cc1 (centres undefined) and report it.
-0.0984

Tell me measured z-score for C/C(=N\NC(=O)c1csc(C)c1C)c1ccco1 please.
0.816

Report z-score, nothing else, for this molecule: O=C(COC(=O)c1cn(-c2ccccc2)nc1-c1ccc(F)cc1)Nc1ncc(Cl)cc1Cl
0.0446

Supply reported z-score belonging to this molecule: O=C(Oc1cccc([N+](=O)[O-])c1)c1cc(-c2ccccc2)nc2ccccc12
0.17

# return recorded z-score for entry COc1ccc(/C=C(/C(=O)c2ccc(Cl)cc2Cl)n2cncn2)cc1
0.0171

Note z-score for the molecule shown: O=C(NCCCn1ccnc1)Nc1cccc(Cl)c1
0.583

Give a short answer stating reported z-score for C/C(=N\NC(=O)c1csc(C)c1C)c1ccc(Cl)s1 .
3.54

Complete the entry with z-score for Cc1nn(C)cc1CNC(=O)Nc1ccc(Cl)c(Cl)c1
2.06

Identify z-score associated with the molecule COc1cccc(/C=N/n2c(=S)n(C)c3ccccc32)c1OC
2.32

Name the recorded z-score of the molecule listed here: Cc1cc(C)c2c(c1)/C(=N/NC(=S)Nc1ccc(F)cc1)CCC2
2.6

Annotate the molecule CC/C(=N\NC(=O)c1csc(C)c1C)c1cccs1 with its measured z-score.
1.32

Return z-score for the following molecule: COc1ccc(/C=N/n2c(=S)n(C)c3ccccc32)cc1OC
0.103

State, in one line, measured z-score of Cc1scc(C(=O)N/N=C/c2ccco2)c1C
-0.0599

Fill in reported z-score for this entry: Cc1cc(C(=O)NCC(=O)OCC(=O)N(C(C)C)C(C)C)ccc1[N+](=O)[O-]
-0.0582

Answer with the recorded z-score for the molecule listed here: Cc1cccc(-c2nc(CSCC(=O)N3CCN(c4ccccn4)CC3)c(C)o2)c1
-1.37

Specify z-score for COc1cc(/C=N/NC(=O)c2ccc([N+](=O)[O-])cc2Cl)cc(Br)c1O and stop.
0.0738

Specify z-score for Fc1ccc(NC(=S)N2CCCC2)cc1 and stop.
-0.0754

Identify measured z-score associated with C=COCCNC(=O)Nc1ccc(Cl)cc1Cl
0.104

Report measured z-score; entry is O=C(NCCCn1ccnc1)Nc1ccc(Cl)cc1Cl
-0.326

Answer with the recorded z-score of COc1cc(C(=O)NCC(=O)N/N=C/c2cccs2)cc(OC)c1OC only.
-0.174
